# Target desc: HAO derived from Nitrosomonas europaea (Nitrosomonas europaea, UniProt Q50925)
# Construct: HAO was purified from ammonia oxidizing bacteria, and stored in a solution state or after drying
# Sequence (Q50925 25-570): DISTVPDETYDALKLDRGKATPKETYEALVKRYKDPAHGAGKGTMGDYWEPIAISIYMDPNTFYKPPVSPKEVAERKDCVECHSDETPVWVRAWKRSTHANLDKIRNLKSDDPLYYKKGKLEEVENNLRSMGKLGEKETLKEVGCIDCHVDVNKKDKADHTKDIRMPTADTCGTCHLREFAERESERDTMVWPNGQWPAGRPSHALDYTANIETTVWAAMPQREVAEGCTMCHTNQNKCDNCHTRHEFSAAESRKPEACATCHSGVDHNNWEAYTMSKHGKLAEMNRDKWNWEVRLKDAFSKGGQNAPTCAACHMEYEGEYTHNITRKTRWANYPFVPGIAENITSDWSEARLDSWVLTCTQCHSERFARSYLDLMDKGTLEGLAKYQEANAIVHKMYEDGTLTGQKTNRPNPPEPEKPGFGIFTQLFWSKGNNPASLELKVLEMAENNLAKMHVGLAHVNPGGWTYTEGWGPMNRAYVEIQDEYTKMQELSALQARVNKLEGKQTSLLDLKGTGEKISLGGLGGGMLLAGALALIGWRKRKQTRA
# Test: Determination of 50% inhibitory concentration against HAO by HAO fluorescence measurement (resazurin method)
# Condition: n=4, nonlinear fitting

{"Compound": "NNc1ccccc1 [phenylhydrazine]", "Unit symbol": "nM", "IC50": 276}
